MEASURED TARGET: Lipopolysaccharide (LPS)
ASSAY OVERVIEW: Displacement of dansyl-PMB from LPS by isothermal titration calorimetry
EXPERIMENTAL ENDPOINT: IC50 (nmol/mL)
Your answer is read as nmol/mL, so omit the unit and give the number.

- MOLECULE: "CC(C)C[C@@H]1NC(=O)[C@@H](Cc2ccccc2)NC(=O)[C@H](CCN)NC(=O)[C@@H](NC(=O)[C@H](CCN)NC(=O)[C@@H](NC(=O)[C@H](Cc2c[nH]c3ccccc23)NC(=O)O)[C@@H](C)O)CCNC(=O)[C@H]([C@@H](C)O)NC(=O)[C@H](CCN)NC(=O)[C@H](CCN)NC1=O [DESFA-[TRP1]POLYMYXIN B]"
  EXPERIMENTAL ENDPOINT: "IC50"
  UNITS OF MEASURE: "nmol/mL"
  TEST RESULT: 20

Let's switch to this molecule now.
Enquiry: Name the recorded IC50 for CCCCCCCC(=O)N[C@@H](CCN)C(=O)N[C@H](C(=O)N[C@@H](CCN)C(=O)N[C@H]1CCNC(=O)[C@H]([C@@H](C)O)NC(=O)[C@H](CCN)NC(=O)[C@H](CCN)NC(=O)[C@H](C)NC(=O)[C@@H](Cc2ccccc2)NC(=O)[C@H](CCN)NC1=O)[C@@H](C)O .
Return: 5
